# Target Under Test: furin, P09958;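 also: purified furin at 1:10 enzyme:substrate in 50 mM HEPES pH 7.5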
# Sequence (P09958 whole entry): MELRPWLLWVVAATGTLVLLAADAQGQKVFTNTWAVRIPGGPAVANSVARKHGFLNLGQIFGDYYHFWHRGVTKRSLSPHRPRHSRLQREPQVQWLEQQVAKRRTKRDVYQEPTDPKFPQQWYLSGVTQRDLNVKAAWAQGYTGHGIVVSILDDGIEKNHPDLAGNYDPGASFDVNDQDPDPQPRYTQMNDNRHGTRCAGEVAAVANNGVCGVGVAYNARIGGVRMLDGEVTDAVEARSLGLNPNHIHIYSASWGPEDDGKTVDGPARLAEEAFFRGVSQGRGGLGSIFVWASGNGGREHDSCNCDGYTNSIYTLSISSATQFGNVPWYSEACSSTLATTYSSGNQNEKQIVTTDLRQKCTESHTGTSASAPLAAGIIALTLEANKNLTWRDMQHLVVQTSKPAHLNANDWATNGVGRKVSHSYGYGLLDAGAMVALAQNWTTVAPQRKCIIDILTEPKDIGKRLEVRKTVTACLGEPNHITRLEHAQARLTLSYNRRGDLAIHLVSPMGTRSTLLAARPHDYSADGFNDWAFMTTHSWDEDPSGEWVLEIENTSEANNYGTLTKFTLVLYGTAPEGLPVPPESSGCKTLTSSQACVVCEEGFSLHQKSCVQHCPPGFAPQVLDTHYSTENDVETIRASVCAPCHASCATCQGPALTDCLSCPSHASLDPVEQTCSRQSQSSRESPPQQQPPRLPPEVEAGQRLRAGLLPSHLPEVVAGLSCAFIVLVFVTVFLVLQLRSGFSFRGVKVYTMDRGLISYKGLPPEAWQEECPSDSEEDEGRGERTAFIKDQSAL
# Assay Info: furin cleavage Z-score vs untreated control; higher = more cleavage, active = 3.5 or more, inactive = 1 or less, 8 variable residues between constant flanks
# Particulars: 30 min
The other results are listed elsewhere or left out. No count for the full screen is at hand.
Assay Endpoint: furin cleavage Z-score
One number for each entry.

Known results for sequences:
Req: Fill in the blank: the reported furin cleavage Z-score of CATHPCSGSWAGNASASA [HC1855] is ____.
Resp: -0.569

Req: State the recorded furin cleavage Z-score for this entry: CATFYGMWPLAGNASASA [HC555]
Resp: 1.29

Req: Which furin cleavage Z-score value is on record for CAWVCCSMSYAGNASASA [HC1988] ?
Resp: 1.05

Req: Which furin cleavage Z-score is reported for this sequence? CARIKRQHSSAGNASASA [FS-1898]
Resp: 4.01

Req: Endpoint output: furin cleavage Z-score of CARLKRLCSSAGNASASA [FS-2990] . Value?
Resp: 0.202

Provide reported furin cleavage Z-score for each item, in the same order as listed.
1. CADDDKIVGGAGNASASA [EK7]
2. CASTPCSAPLAGNASASA [HC2559]

Resp:
[-0.908, 0.232]
